Give protein stability index for every item shown.
B1: PLAGL1 (parent)
chain: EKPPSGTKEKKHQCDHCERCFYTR

variants of: B1; assay: protein stability index of a GFP-peptide fusion (GPS, HEK-293T) (PSI 1-6); higher = more stable; settings: c terminus: a fixed tail appended;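 further: lentivirally expressed fusions sorted by FACS into six bins by GFP to DsRed ratio, PSI derived from sequencing read proportions per bin multiplied by bin number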
Give bare numbers.

[
  {
    "variant_code": "C14R",
    "recorded_number": 3.97
  }
]

Consider the following items and state reported protein stability index for each.
1. K11H
2. K10D
3. K2S
4. C14S

**Result**
1: 4.06; 2: 4.05; 3: 3.95; 4: 4.02

Could I get protein stability index for every one of these entries?
1. K10G
2. K8L

**Result**
3.91
3.04

For every item in the list below, what is its measured protein stability index?
1. Y22P
2. E9L
3. P3V
4. T23A
5. C20V
6. H16V
7. R19S

**Result**
4.05
3
3.97
3.89
3.06
3.08
3.9

// for each variant in input: emit protein stability index
1. C14A
2. K11L

**Result**
3.97
3.97
